Answer each item with its documented relative viability.
# Tested on: NCI-H441
# assay-protocol: relative viability (nuclei count vs DMSO), 5 days (fraction); higher = more cells survive
# experimental-context: first compound 8 µM

relative viability lookup needed for O=c1[nH]c2ccccc2n1C1CCN(CCCC(c2ccc(F)cc2)c2ccc(F)cc2)CC1 [Pimozide] + Cc1nc(NC(=O)N2CCC[C@H]2C(N)=O)sc1-c1ccnc(C(C)(C)C(F)(F)F)c1 [Alpelisib] (partner 2 µM) , thanks. 0.442

Request: O=c1[nH]c2ccccc2n1C1CCN(CCCC(c2ccc(F)cc2)c2ccc(F)cc2)CC1 [Pimozide] + COc1cccc2cc(-c3nc([C@H]4CC[C@H](C(=O)O)CC4)n4ncnc(N)c34)[nH]c12 [OSI-027] (partner 0.5 µM) 0.406

Request: O=c1[nH]c2ccccc2n1C1CCN(CCCC(c2ccc(F)cc2)c2ccc(F)cc2)CC1 [Pimozide] + CC(=O)c1c(C)c2cnc(Nc3ccc(N4CCNCC4)cn3)nc2n(C2CCCC2)c1=O [Palbociclib] (partner 0.5 µM) 0.208

Request: O=c1[nH]c2ccccc2n1C1CCN(CCCC(c2ccc(F)cc2)c2ccc(F)cc2)CC1 [Pimozide] + NC(=O)Nc1cc(-c2cccc(F)c2)sc1C(=O)N[C@H]1CCCNC1 [AZD7762] (partner 0.2 µM) 1.04

Request: O=c1[nH]c2ccccc2n1C1CCN(CCCC(c2ccc(F)cc2)c2ccc(F)cc2)CC1 [Pimozide] + CS(=O)(=O)N1CCN(Cc2cc3nc(-c4cccc5[nH]ncc45)nc(N4CCOCC4)c3s2)CC1 [Pictilisib] (partner 1 µM) 0.344

Request: O=c1[nH]c2ccccc2n1C1CCN(CCCC(c2ccc(F)cc2)c2ccc(F)cc2)CC1 [Pimozide] + COc1cc2c(Oc3ccc(NC(=O)C4(C(=O)Nc5ccc(F)cc5)CC4)cc3F)ccnc2cc1OCCCN1CCOCC1 [Foretinib] (partner 0.25 µM) 0.922

Request: O=c1[nH]c2ccccc2n1C1CCN(CCCC(c2ccc(F)cc2)c2ccc(F)cc2)CC1 [Pimozide] + CCNC(=O)c1noc(-c2cc(C(C)C)c(O)cc2O)c1-c1ccc(CN2CCOCC2)cc1 [Luminespib] (partner 0.01 µM) 0.3

###

# Test system: NCI-H1563
# assay-protocol: relative viability (nuclei count vs DMSO), 5 days (fraction); higher = more cells survive
# experimental-context: first compound 0.04 µM
parameter-measured: relative viability
Hey, just send me the number, nothing else.

relative viability lookup needed for Cc1sc2c(c1C)C(c1ccc(Cl)cc1)=N[C@@H](CC(=O)OC(C)(C)C)c1nnc(C)n1-2 [JQ1] + COc1cccc2cc(-c3nc([C@H]4CC[C@H](C(=O)O)CC4)n4ncnc(N)c34)[nH]c12 [OSI-027] (partner 0.5 µM) , thanks. 0.735

Request: Cc1sc2c(c1C)C(c1ccc(Cl)cc1)=N[C@@H](CC(=O)OC(C)(C)C)c1nnc(C)n1-2 [JQ1] + COc1cc2c(Oc3ccc(NC(=O)C4(C(=O)Nc5ccc(F)cc5)CC4)cc3F)ccnc2cc1OCCCN1CCOCC1 [Foretinib] (partner 0.25 µM) 0.96

###

# Tested on: NCI-H522
# assay-protocol: relative viability (nuclei count vs DMSO), 5 days (fraction); higher = more cells survive
# experimental-context: first compound 2.53 µM
Answer each item with its documented relative viability.
Hey, just send me the number, nothing else.

relative viability lookup needed for O=c1[nH]c2ccccc2n1C1CCN(CCCC(c2ccc(F)cc2)c2ccc(F)cc2)CC1 [Pimozide] + Nc1ncn([C@H]2C[C@H](O)[C@@H](CO)O2)c(=O)n1 [Decitabine] (partner 2 µM) , thanks. 0.698

Request: Cc1cnc(-c2cnc(NCCNc3ccc(C#N)cn3)nc2-c2ccc(Cl)cc2Cl)[nH]1 + N=C(N)NC(=N)NCCc1ccccc1 [Phenformin] (partner 250 µM) 0.666

Request: Cc1cnc(-c2cnc(NCCNc3ccc(C#N)cn3)nc2-c2ccc(Cl)cc2Cl)[nH]1 + O=C(CCCCCCC(=O)Nc1ccccc1)NO [Vorinostat] (partner 1 µM) 0.842

###

# Test system: NCI-H441
# assay-protocol: relative viability (nuclei count vs DMSO), 5 days (fraction); higher = more cells survive
# experimental-context: first compound 0.002 µM
Answer each item with its documented relative viability.
Hey, just send me the number, nothing else.

relative viability lookup needed for CC(=O)O[C@@]12CO[C@@H]1C[C@H](O)[C@@]1(C)C(=O)[C@H](O)C3=C(C)[C@@H](OC(=O)[C@H](O)[C@@H](NC(=O)OC(C)(C)C)c4ccccc4)C[C@@](O)([C@@H](OC(=O)c4ccccc4)[C@H]21)C3(C)C [Docetaxel] + C[C@]1(O)C[C@@H](c2nc(-c3ccc4ccc(-c5ccccc5)nc4c3)c3c(N)nccn32)C1 [Linsitinib] (partner 1 µM) , thanks. 0.172

Request: CC(=O)O[C@@]12CO[C@@H]1C[C@H](O)[C@@]1(C)C(=O)[C@H](O)C3=C(C)[C@@H](OC(=O)[C@H](O)[C@@H](NC(=O)OC(C)(C)C)c4ccccc4)C[C@@](O)([C@@H](OC(=O)c4ccccc4)[C@H]21)C3(C)C [Docetaxel] + O=C(c1cc(Cc2n[nH]c(=O)c3ccccc23)ccc1F)N1CCN(C(=O)C2CC2)CC1 [Olaparib] (partner 8 µM) 0.223

Request: CC(=O)O[C@@]12CO[C@@H]1C[C@H](O)[C@@]1(C)C(=O)[C@H](O)C3=C(C)[C@@H](OC(=O)[C@H](O)[C@@H](NC(=O)OC(C)(C)C)c4ccccc4)C[C@@](O)([C@@H](OC(=O)c4ccccc4)[C@H]21)C3(C)C [Docetaxel] + CC(=O)c1c(C)c2cnc(Nc3ccc(N4CCNCC4)cn3)nc2n(C2CCCC2)c1=O [Palbociclib] (partner 0.5 µM) 0.209

Request: CC(=O)O[C@@]12CO[C@@H]1C[C@H](O)[C@@]1(C)C(=O)[C@H](O)C3=C(C)[C@@H](OC(=O)[C@H](O)[C@@H](NC(=O)OC(C)(C)C)c4ccccc4)C[C@@](O)([C@@H](OC(=O)c4ccccc4)[C@H]21)C3(C)C [Docetaxel] + CC(=O)Nc1cccc(-n2c(=O)n(C3CC3)c(=O)c3c(Nc4ccc(I)cc4F)n(C)c(=O)c(C)c32)c1 [Trametinib] (partner 0.02 µM) 0.202

###

# System: SW 900
# assay-protocol: relative viability (nuclei count vs DMSO), 5 days (fraction); higher = more cells survive
# experimental-context: first compound 0.000632 µM
parameter-measured: relative viability
Hey, just send me the number, nothing else.

Which measured relative viability belongs to CC(=O)O[C@@]12CO[C@@H]1C[C@H](O)[C@@]1(C)C(=O)[C@H](O)C3=C(C)[C@@H](OC(=O)[C@H](O)[C@@H](NC(=O)OC(C)(C)C)c4ccccc4)C[C@@](O)([C@@H](OC(=O)c4ccccc4)[C@H]21)C3(C)C [Docetaxel] + CC(=O)c1c(C)c2cnc(Nc3ccc(N4CCNCC4)cn3)nc2n(C2CCCC2)c1=O [Palbociclib] (partner 0.5 µM) , tested on SW 900? 0.308

Request: CC(=O)O[C@@]12CO[C@@H]1C[C@H](O)[C@@]1(C)C(=O)[C@H](O)C3=C(C)[C@@H](OC(=O)[C@H](O)[C@@H](NC(=O)OC(C)(C)C)c4ccccc4)C[C@@](O)([C@@H](OC(=O)c4ccccc4)[C@H]21)C3(C)C [Docetaxel] + COc1cc2c(Oc3ccc(NC(=O)C4(C(=O)Nc5ccc(F)cc5)CC4)cc3F)ccnc2cc1OCCCN1CCOCC1 [Foretinib] (partner 0.25 µM) 0.407

###

# Test system: NCI-H727
# assay-protocol: relative viability (nuclei count vs DMSO), 5 days (fraction); higher = more cells survive
# experimental-context: first compound 4 µM
Answer each item with its documented relative viability.
Hey, just send me the number, nothing else.

relative viability lookup needed for Cc1sc2c(c1C)C(c1ccc(Cl)cc1)=N[C@@H](CC(=O)OC(C)(C)C)c1nnc(C)n1-2 [JQ1] + N=C(N)NC(=N)NCCc1ccccc1 [Phenformin] (partner 250 µM) , thanks. 0.343

Request: Cc1sc2c(c1C)C(c1ccc(Cl)cc1)=N[C@@H](CC(=O)OC(C)(C)C)c1nnc(C)n1-2 [JQ1] + COc1cccc2cc(-c3nc([C@H]4CC[C@H](C(=O)O)CC4)n4ncnc(N)c34)[nH]c12 [OSI-027] (partner 0.5 µM) 0.406

Request: Cc1sc2c(c1C)C(c1ccc(Cl)cc1)=N[C@@H](CC(=O)OC(C)(C)C)c1nnc(C)n1-2 [JQ1] + Cc1nc(Nc2ncc(C(=O)Nc3c(C)cccc3Cl)s2)cc(N2CCN(CCO)CC2)n1 [Dasatinib] (partner 0.075 µM) 0.426

Request: Cc1sc2c(c1C)C(c1ccc(Cl)cc1)=N[C@@H](CC(=O)OC(C)(C)C)c1nnc(C)n1-2 [JQ1] + Nc1ncn([C@H]2C[C@H](O)[C@@H](CO)O2)c(=O)n1 [Decitabine] (partner 2 µM) 0.649

Request: Cc1sc2c(c1C)C(c1ccc(Cl)cc1)=N[C@@H](CC(=O)OC(C)(C)C)c1nnc(C)n1-2 [JQ1] + CCNC(=O)c1noc(-c2cc(C(C)C)c(O)cc2O)c1-c1ccc(CN2CCOCC2)cc1 [Luminespib] (partner 0.01 µM) 0.346
